# test.description: Pharmacokinetics in whole blood, CD-1 mice
# applied.conditions: male, CD-1, mouse, whole blood, po, 300 mg/kg, Whole Blood Conc. of compound 3, CD-1 mice, single 300 mg/kg RE-024-02 PO, 8 hr, LLOQ 21.3 nM
parameter: concentration at 8 h (nM)
API: value field is a number in nM; no unit string.

Please fill in: concentration at 8 h reported for CC1(C)COP(=O)(O)O[C@H]1C(=O)NCCC(=O)O [Compound 3] = 26.9

----------
# test.description: Pharmacokinetics in whole blood, Sprague-Dawley rats
# applied.conditions: Sprague-Dawley, rat, whole blood, po, 100 mg/kg, Whole Blood Conc. of compound 2, Sprague-Dawley rats, single 100 mg/kg RE-024-02 PO, time 8, LLOQ 10.2 nM
parameter: concentration at 8 h (nM)
API: value field is a number in nM; no unit string.

Please fill in: concentration at 8 h reported for COC(=O)CCNC(=O)[C@@H]1OP(=O)(O)OCC1(C)C [Compound 2] = 21.8

----------
# test.description: Pharmacokinetics in whole blood, CD-1 mice
# applied.conditions: male, CD-1, mouse, in vivo, 100 mg/kg, Mean Conc., blood; fosmetpantotenate 100 mg/kg PO; 0.033 hr
parameter: concentration at 0.033 h (nM)
API: value field is a number in nM; no unit string.

Please fill in: concentration at 0.033 h reported for COC(=O)CCNC(=O)[C@H](O)C(C)(C)COP(=O)(N[C@@H](C)C(=O)OC)Oc1ccccc1 (mixture of isomers) [Fosmetpantotenate] = 7.81

----------
# test.description: Pharmacokinetics in whole blood, Sprague-Dawley rats
# applied.conditions: Sprague-Dawley, rat, in vivo, po, 100 mg/kg, Whole Blood Conc. of compound 1, Sprague-Dawley rats, single 100 mg/kg RE-024-02 PO, time 0.33, LLOQ 1.58 nM
parameter: concentration at 0.33 h (nM)
API: value field is a number in nM; no unit string.

Please fill in: concentration at 0.33 h reported for COC(=O)CCNC(=O)[C@@H]1OP(=O)(N[C@@H](C)C(=O)OC)OCC1(C)C (stereo partly shown) [Compound 1] = 3.18

----------
# test.description: Pharmacokinetics in whole blood, CD-1 mice
# applied.conditions: male, CD-1, mouse, whole blood, po, 300 mg/kg, Whole Blood Conc. of compound 2, CD-1 mice, single 300 mg/kg RE-024-02 PO, 4 hr, LLOQ 10.2 nM
parameter: concentration at 4 h (µM)
API: value field is a number in µM; no unit string.

Please fill in: concentration at 4 h reported for COC(=O)CCNC(=O)[C@@H]1OP(=O)(O)OCC1(C)C = 0.0742

----------
# test.description: Pharmacokinetics in whole blood, CD-1 mice
# applied.conditions: CD1 mouse; 300 mg/kg PO; metabolite AUCall/Parent AUCall x 100
Item-by-item account of % Parent AUCAll

Sample records with % Parent AUCAll:
CC1(C)COP(=O)(O)O[C@H]1C(=O)NCCC(=O)O [Compound 3]: 18,900%
COC(=O)CCNC(=O)[C@@H]1OP(=O)(N[C@@H](C)C(=O)OC)OCC1(C)C (stereo partly shown) [Compound 1]: 307%
COC(=O)CCNC(=O)[C@@H]1OP(=O)(O)OCC1(C)C [Compound 2]: 29,800%

Here is another compound to look at.
Please fill in: % Parent AUCAll reported for COC(=O)[C@H](C)NP(=O)(OCC(C)(C)[C@@H](O)C(=O)NCCC(=O)O)Oc1ccccc1 (stereo partly shown) [Compound 4] = 12,600%

----------
# test.description: Microdialysis (brain striatal dialysate) in C57Bl6 mice
# applied.conditions: male, C57Bl6, mouse, striatal dialysate (brain microdialysate), other: direct infusion into the striatum via cannula, 125 µg per animal
parameter: concentration at 3 h (µM)
API: value field is a number in µM; no unit string.

Please fill in: concentration at 3 h reported for COC(=O)CCNC(=O)[C@H](O)C(C)(C)COP(=O)(N[C@@H](C)C(=O)OC)Oc1ccccc1 (mixture of isomers) [Fosmetpantotenate] = 3.22

----------
# test.description: in vivo
# applied.conditions: male, CD-1, mouse, po, 100 mg/kg
parameter: AUC (µM·h)
API: value field is a number in µM·h; no unit string.

Please fill in: AUC reported for CC(C)(CO)[C@@H](O)C(=O)NCCC(=O)O [PA, pantothenate] = 3.4

----------
# test.description: Metabolic stability in human liver microsomes
# Format: in vitro ADME
# applied.conditions: pooled liver microsomes, pH 7.4, 1 μM, NADPH
parameter: half-life at 1 μM (min)
API: value field is a number in min; no unit string.

Please fill in: half-life at 1 μM reported for COC(=O)CCNC(=O)[C@H](O)C(C)(C)COP(=O)(N[C@@H](C)C(=O)OC)Oc1ccccc1 (mixture of isomers) [Fosmetpantotenate] = 21

----------
# test.description: Pharmacokinetics in whole blood, CD-1 mice
# applied.conditions: male, CD-1, mouse, in vivo, 300 mg/kg, Conc., blood; fosmetpantotenate 300 mg/kg PO; 0.333 hr; individual animals
parameter: concentration at 0.333 h

Please fill in: concentration at 0.333 h reported for COC(=O)CCNC(=O)[C@H](O)C(C)(C)COP(=O)(N[C@@H](C)C(=O)OC)Oc1ccccc1 (mixture of isomers) [Fosmetpantotenate] = 1.43 nM

----------
# test.description: Pharmacokinetics in whole blood, CD-1 mice
# applied.conditions: male, CD-1, mouse, whole blood, po, 700 mg/kg, Whole Blood Conc. of compound 3, CD-1 mice, single 700 mg/kg RE-024-02 PO, 0.5 hr, LLOQ 6 ng/mL
parameter: concentration at 0.5 h (ng/mL)
API: value field is a number in ng/mL; no unit string.

Please fill in: concentration at 0.5 h reported for CC1(C)COP(=O)(O)O[C@H]1C(=O)NCCC(=O)O = 162

----------
# test.description: Pharmacokinetics in whole blood, cynomolgus monkeys
# applied.conditions: male, cynomolgus monkey, in vivo, 300 mg/kg, Fosmetpantotenate Mean Conc., male cynomolgus monkeys, fosmetpantotenate 300 mg/kg oral, blood, 0.083 hr
parameter: concentration at 0.083 h (nM)
API: value field is a number in nM; no unit string.

Please fill in: concentration at 0.083 h reported for COC(=O)CCNC(=O)[C@H](O)C(C)(C)COP(=O)(N[C@@H](C)C(=O)OC)Oc1ccccc1 (mixture of isomers) [Fosmetpantotenate] = 197

----------
# test.description: Pharmacokinetics in whole blood, CD-1 mice
# applied.conditions: male, CD-1, mouse, in vivo, 700 mg/kg, Fosmetpantotenate Conc., male CD-1 mice, fosmetpantotenate 700 mg/kg oral, blood, 0.333 hr, individual animals, BQL <1.02 nM
parameter: concentration at 0.333 h (nM)
API: value field is a number in nM; no unit string.

Please fill in: concentration at 0.333 h reported for COC(=O)CCNC(=O)[C@H](O)C(C)(C)COP(=O)(N[C@@H](C)C(=O)OC)Oc1ccccc1 (mixture of isomers) [Fosmetpantotenate] = 24.4

----------
# test.description: in vivo
# applied.conditions: male, CD-1, mouse, po, 300 mg/kg
parameter: Cmax (nM)
API: value field is a number in nM; no unit string.

Please fill in: Cmax reported for CC(C)(CO)[C@@H](O)C(=O)NCCC(=O)O [PA, pantothenate] = 771

----------
# test.description: Pharmacokinetics in whole blood, cynomolgus monkeys
# applied.conditions: cynomolgus monkey, whole blood, po, 300 mg/kg, Concentration of compound 2 in whole blood, cynomolgus monkeys, single oral 300 mg/kg fosmetpantotenate, 0.5 hr, LLOQ 2.03 nM
parameter: concentration at 0.5 h (nM)
API: value field is a number in nM; no unit string.

Please fill in: concentration at 0.5 h reported for COC(=O)CCNC(=O)[C@@H]1OP(=O)(O)OCC1(C)C = 1860

----------
# test.description: Pharmacokinetics in whole blood, CD-1 mice
# applied.conditions: male, CD-1, mouse, in vivo, 100 mg/kg, Conc., blood; fosmetpantotenate 100 mg/kg PO; 2 hr; individual animals
parameter: concentration at 2 h (nM)
API: value field is a number in nM; no unit string.

Please fill in: concentration at 2 h reported for COC(=O)CCNC(=O)[C@H](O)C(C)(C)COP(=O)(N[C@@H](C)C(=O)OC)Oc1ccccc1 (mixture of isomers) [Fosmetpantotenate] = 2.97

----------
# test.description: Pharmacokinetics in whole blood, CD-1 mice
# applied.conditions: male, CD-1, mouse, in vivo, po, 700 mg/kg, Compound 1 Whole Blood Conc., CD-1 mice, 700 mg/kg RE-024-02 by PO, 4 hr, individual animals, LLOQ 0.6 ng/mL
parameter: concentration at 4 h (ng/mL)
API: value field is a number in ng/mL; no unit string.

Please fill in: concentration at 4 h reported for COC(=O)CCNC(=O)[C@@H]1OP(=O)(N[C@@H](C)C(=O)OC)OCC1(C)C (stereo partly shown) = 0.8
